particulars: buffer; pH 7.4; 200.0 µM

compound: O=C(Nc1ccccc1F)c1cc(Cl)sc1Cl
inequalityOperator: =
solubility kinetic (µg/mL): 5.2

compound: c1ccc(Cn2c(NCc3ccccn3)nc3ccccc32)cc1
inequalityOperator: >
solubility kinetic (µg/mL): 47.2

compound: Oc1c(CN2CCCC(C(F)(F)F)C2)cc(Cl)c2ccccc12 (centres undefined)
inequalityOperator: =
solubility kinetic (µg/mL): 4.1

compound: O=C(COC(=O)CCC(=O)c1cccs1)Nc1ccccc1C(F)(F)F
inequalityOperator: >
solubility kinetic (µg/mL): 57.8

compound: Cc1cc(F)ccc1S(=O)(=O)Nc1ccc(C(=O)N2CCCCC2)cc1
inequalityOperator: >
solubility kinetic (µg/mL): 56.5

compound: COc1ccccc1NS(=O)(=O)c1cc(N)ccc1N1CCCCC1
inequalityOperator: =
solubility kinetic (µg/mL): 6.1

compound: COc1ccc2cc(Br)ccc2c1CC(=O)N(C)C
inequalityOperator: =
solubility kinetic (µg/mL): 21.1

compound: CCN(CC)S(=O)(=O)c1ccc(NC(=O)c2cc(=O)[nH]c3ccccc23)cc1
inequalityOperator: =
solubility kinetic (µg/mL): 3.9

compound: Cc1cccc(C)c1OCCCn1ccnc1
inequalityOperator: =
solubility kinetic (µg/mL): 20.1

compound: OCC1(Cc2ccccc2)CCN(Cc2cc3ccccc3o2)CC1
inequalityOperator: >
solubility kinetic (µg/mL): 50.3

compound: Cc1ccc(N2CCN(CC(O)COc3ccccc3)CC2)cc1 (centres undefined)
inequalityOperator: =
solubility kinetic (µg/mL): 30.1

compound: O=c1[nH]cnc2c1c(-c1ccccc1)cn2-c1cccc(Cl)c1
inequalityOperator: =
solubility kinetic (µg/mL): 0.3

compound: CCOC(=O)c1ccc(NC(=S)NCc2ccco2)cc1
inequalityOperator: >
solubility kinetic (µg/mL): 45.7

compound: CC1CCCN1CC#CC(O)(c1ccccc1)c1ccccc1.Cl (centres undefined)
inequalityOperator: =
solubility kinetic (µg/mL): 46.9

compound: Cl.O=C1CC[C@@]2(O)[C@H]3Cc4ccc(O)c5c4[C@@]2(CCN3CC2CC2)[C@H]1O5
inequalityOperator: >
solubility kinetic (µg/mL): 56.7

compound: Cc1cc(Br)ccc1NC(=O)c1ccco1
inequalityOperator: >
solubility kinetic (µg/mL): 42

compound: O=C1NC(=O)C2(CCCCCCCCCCC2)N1
inequalityOperator: =
solubility kinetic (µg/mL): 1.5

compound: CC(C)C1Nc2ccc(C(=O)NC3CCCCC3)cc2NC1=O (centres undefined)
inequalityOperator: >
solubility kinetic (µg/mL): 47.3

compound: CC(=O)Nc1nc2c(C)cc(NC(=O)C3CCCCC3)cc2s1
inequalityOperator: =
solubility kinetic (µg/mL): 0.7

compound: CN1CCCC(C(=O)c2ccc(-c3ccccc3)cc2)C1 (centres undefined)
inequalityOperator: =
solubility kinetic (µg/mL): 27.3

compound: Cc1noc(C)c1CNCc1ccccc1.O=C(O)C(=O)O
inequalityOperator: >
solubility kinetic (µg/mL): 45.9

compound: Cc1ccc(NC(=O)C2CC(Cl)=CCC2C(=O)O)c([N+](=O)[O-])c1 (centres undefined)
inequalityOperator: >
solubility kinetic (µg/mL): 50.8

compound: O=c1cc(C(F)(F)F)[nH]c2ccccc12
inequalityOperator: >
solubility kinetic (µg/mL): 32

compound: COc1ccc(/C=C/C(=O)OCC(=O)NC2CC2)c(OC)c1
inequalityOperator: >
solubility kinetic (µg/mL): 45.8

compound: CC(C(=O)O)n1c2ccccc2c2cnn(C)c(=O)c21 (centres undefined)
inequalityOperator: >
solubility kinetic (µg/mL): 40.7

compound: Cc1nc(C)c(-c2csc(Nc3ccc(O)cc3C)n2)s1
inequalityOperator: <
solubility kinetic (µg/mL): 0.2

compound: O=C(O)c1cc([N+](=O)[O-])ccc1NCc1cccnc1
inequalityOperator: >
solubility kinetic (µg/mL): 41

compound: COc1ccccc1C(=O)NC(=O)Nc1c(C)cc(C)cc1C
inequalityOperator: =
solubility kinetic (µg/mL): 0.7

compound: CCOc1cccc(Nc2ccc([N+](=O)[O-])cn2)c1
inequalityOperator: =
solubility kinetic (µg/mL): 2.4

compound: CCOP(=O)(c1ccc(N(C)C)cc1)C(O)c1ccc(OC)cc1 (centres undefined)
inequalityOperator: =
solubility kinetic (µg/mL): 48.8

compound: COCCN(CCOC)C(=O)N1CCOCC1
inequalityOperator: >
solubility kinetic (µg/mL): 36.9

compound: Cc1ccc(C)c(NC(=O)NC2CCCCCCC2)c1
inequalityOperator: <
solubility kinetic (µg/mL): 0.3

compound: C=CCNC(=O)c1cc(-c2cccnc2)nc2ccccc12
inequalityOperator: >
solubility kinetic (µg/mL): 43.4

compound: COC(=O)CSc1nc2ccc(N)cc2s1
inequalityOperator: >
solubility kinetic (µg/mL): 38.1

compound: Cc1cc(NC(=O)c2ccc(Cl)c([N+](=O)[O-])c2)no1
inequalityOperator: =
solubility kinetic (µg/mL): 0.8

compound: CCc1cccc(CC)c1NC(=S)Nc1cccc(Cl)c1Cl
inequalityOperator: =
solubility kinetic (µg/mL): 1.4

compound: Cn1cccc1C(=O)OCC(=O)N1CC(=O)Nc2ccccc21
inequalityOperator: =
solubility kinetic (µg/mL): 45.1

compound: CN1CCCN(c2ccc([N+](=O)[O-])cc2)CC1
inequalityOperator: >
solubility kinetic (µg/mL): 35.3

compound: Cc1ccc(-c2cc3ccccc3nc2N)cc1
inequalityOperator: =
solubility kinetic (µg/mL): 4

compound: CC(C)(C)N(Cc1ccccc1)C(=O)c1ccncc1
inequalityOperator: >
solubility kinetic (µg/mL): 40.3

compound: Cc1cc(=O)oc(C)c1C(=O)Nc1ccccc1F
inequalityOperator: =
solubility kinetic (µg/mL): 35.4

compound: NC(=O)COC(=O)c1ccc2c(c1)S(=O)(=O)c1ccccc1C2=O
inequalityOperator: =
solubility kinetic (µg/mL): 7.5

compound: CC(C)NCC(=O)Nc1c2c(nc3ccccc13)CCC2.O=C(O)C(=O)O
inequalityOperator: >
solubility kinetic (µg/mL): 56

compound: OCCOCCN1CCN(C(=S)Nc2ccccc2)CC1
inequalityOperator: >
solubility kinetic (µg/mL): 46.4

compound: Cc1cc(C)c(C)c(S(=O)(=O)Nc2ccccc2N2CCOCC2)c1C
inequalityOperator: =
solubility kinetic (µg/mL): 1.7

compound: COc1ccc(Nc2nc3cc(C)ccc3cc2C#N)cc1
inequalityOperator: <
solubility kinetic (µg/mL): 0.2

compound: CC(NC(=O)COC(=O)C12CC3CC(CC(O)(C3)C1)C2)c1ccccc1 (centres undefined)
inequalityOperator: >
solubility kinetic (µg/mL): 53.6

compound: Cc1cc2nccc(-c3ccncc3)n2n1
inequalityOperator: >
solubility kinetic (µg/mL): 31.5

compound: COc1cc(NC(=O)C(=O)N2CCN(C)CC2)c(OC)cc1Cl
inequalityOperator: >
solubility kinetic (µg/mL): 51.3
